System: CP194
Assay: qHTS profiling for inhibitors of Plasmodium falciparum proliferation (AID 504749); also: nearly all actives have a fitted effect of over 60% in size
Conditions: P. falciparum in erythrocytes, SYBR Green DNA, 72 h; series mostly up to 28.7 µM
Inconclusive results are not listed. Activity calls are given as the source filed them. Calls follow the shape of the dose curve; as a rule, active = well fitted inhibition curve with a large enough effect; inconclusive = small, poorly fitted or top-dose-only effect; inactive = flat fitted curve, though single readings scatter.
outcome-measure: outcome

{"columns": ["molecule", "outcome-measure", "recorded-result"],
 "data": [
  ["CCOC(=O)[C@H](CCc1ccccc1)N[C@@H](C)C(=O)N1[C@H](C(=O)O)C[C@H]2CCCC[C@@H]21", "outcome", "inactive"],
  ["COc1cc(N)c(Cl)cc1C(=O)NC1CCN(Cc2ccccc2)CC1", "outcome", "inactive"],
  ["CC[N+](C)(CC)CCOC(=O)C(O)(c1ccccc1)C1CCCCC1 (stereo not drawn)", "outcome", "inactive"]
]}
